B1: PLK2 (parent)
chain: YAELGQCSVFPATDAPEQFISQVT

variants of: B1; assay: protein stability index of a GFP-peptide fusion (GPS, HEK-293T) (PSI 1-6); higher = more stable; conditions: c terminus: a fixed tail appended;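 also: lentivirally expressed fusions sorted by FACS into six bins by GFP to DsRed ratio, PSI derived from sequencing read proportions per bin multiplied by bin number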
Attribute: protein stability index
Write the number on its own, no unit after it.

variant | quantityKind | reportedResult
F19L | protein stability index | 2.36
T13N | protein stability index | 2.5
F19Y | protein stability index | 1.94
F10A | protein stability index | 3.34

What value of protein stability index has been recorded for this entry: `C7R`
2.57

Likewise for `Q22V` ?
2.81

Another variant to check: `V9D`
4.25

Record: `E3M`
1.97

Then what about the variant `D14V` ?
1.78

// next record `I20W`
1.27

Next: `E17G`
2.15
